system tested: recombinant human ALX receptor (Homo sapiens)
Construct: expressed in transfected cells; host or cells: HEK293 (HEK293-hALXR-Gα16)
assay procedure: Intracellular calcium measurements (FLIPR), ALX receptor agonistic activity
Format: cell-based
condition: HEK293-hALXR-Gα16 cells, Fluo-4 calcium signal, normalized to WKYMVm 10 nM
Each record here notes measured EC50.
State the answer as a number, implicitly in µM.

Task item: Answer with the recorded EC50 for the compound listed here: O=C(N[C@H](Cc1ccc(Br)cc1)c1nc2ccc(F)cc2[nH]1)NC12CCC(O)(CC1)CC2 [Example 195]
Reply: 0.0011

* * *

Each record here notes measured pEC50.
system tested: recombinant human ALX receptor (Homo sapiens, UniProt P25090)
Sequence (P25090 whole entry): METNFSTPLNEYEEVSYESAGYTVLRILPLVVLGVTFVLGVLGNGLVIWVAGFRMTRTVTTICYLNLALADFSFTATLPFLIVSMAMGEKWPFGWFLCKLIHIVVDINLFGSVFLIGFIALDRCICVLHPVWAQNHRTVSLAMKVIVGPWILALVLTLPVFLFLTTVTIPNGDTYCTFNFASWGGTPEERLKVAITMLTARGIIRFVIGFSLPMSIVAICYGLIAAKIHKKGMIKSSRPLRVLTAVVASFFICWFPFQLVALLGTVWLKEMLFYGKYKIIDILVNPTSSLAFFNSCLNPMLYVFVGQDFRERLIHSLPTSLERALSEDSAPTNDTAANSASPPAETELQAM
assay procedure: Intracellular calcium measurements (FLIPR), ALX receptor agonistic activity
condition: HEK293-hALXR-Gα16 cells, Fluo-4 calcium signal, normalized to WKYMVm 10 nM
Structures can show the parent of a compound that is named as a salt.
Keep in mind that pEC50 stands for -log10 of concentration in molar terms.

Below: 10 compounds and their reported pEC50.
compound	system tested	assay result
COc1ccc(CC(NC(=O)N[C@H]2CC[C@](C)(O)CC2)c2nc3ccc(F)cc3[nH]2)c(F)c1 (mixture of isomers)	recombinant human ALX receptor (Homo sapiens, UniProt P25090)	8.74
COc1ccc(C[C@@H](NC(=O)NCc2ccccc2C#N)c2nc3ccccc3[nH]2)cc1	recombinant human ALX receptor (Homo sapiens, UniProt P25090)	6.78
COc1ccc(C[C@@H](NC(=O)NC2CCc3cccc(OC)c3C2)c2nc3ccccc3[nH]2)cc1 (some centres unmarked)	recombinant human ALX receptor (Homo sapiens, UniProt P25090)	7.59
COc1ccc(CC(NC(=O)N[C@H]2CC[C@H](O)CC2)c2nc3ccc(F)cc3[nH]2)cc1F (single isomer, unassigned; ent-2) [Example 371]	recombinant human ALX receptor (Homo sapiens, UniProt P25090)	6.60
COc1ccc(C[C@@H](NC(=O)NCCc2ccccc2Cl)c2nc3ccccc3[nH]2)cc1 [Example 56, hydrochloride]	recombinant human ALX receptor (Homo sapiens, UniProt P25090)	6.96
COc1ccc(C[C@@H](NC(=O)NC2CCN(S(C)(=O)=O)CC2)c2nc3ccccc3[nH]2)cc1	recombinant human ALX receptor (Homo sapiens, UniProt P25090)	6.97
COc1ccc(C[C@@H](NC(=O)N[C@@H](C)c2ccc(Cl)cc2)c2nc3ccccc3[nH]2)cc1	recombinant human ALX receptor (Homo sapiens, UniProt P25090)	6.82
COC(=O)c1ccc(C2(NC(=O)N[C@H](Cc3ccc(OC)cc3)c3nc4ccccc4[nH]3)CC2)cc1	recombinant human ALX receptor (Homo sapiens, UniProt P25090)	6.56
COc1ccc(CC(NC(=O)Nc2cc(C)nn2-c2ccccc2)c2nc3ccccc3[nH]2)cc1 (centres unmarked)	recombinant human ALX receptor (Homo sapiens, UniProt P25090)	7.70
COc1ccc(CC(NC(=O)Nc2ccnn2-c2ccc(C(C)C)cc2)c2nc3ccccc3[nH]2)cc1 (centres unmarked)	recombinant human ALX receptor (Homo sapiens, UniProt P25090)	6.81

Task item: Answer with the recorded pEC50 for the compound listed here: COc1ccc(CC(NC(=O)N[C@H]2CC[C@H](O)CC2)c2nc3ccncc3[nH]2)cc1 (relative stereo)
Reply: 6.52

Task item: Answer with the recorded pEC50 for the compound listed here: COc1ccc(CC(NC(=O)N[C@H]2CC[C@H](O)CC2)c2nc3ccccc3[nH]2)c(F)c1F (relative stereo) [Example 232]
Reply: 8.59

Task item: Answer with the recorded pEC50 for the compound listed here: COc1ccc(C[C@@H](NC(=O)NCCc2cc(C)ccc2C)c2nc3ccccc3[nH]2)cc1
Reply: 7.22

Task item: Answer with the recorded pEC50 for the compound listed here: COc1ccc(CC(NC(=O)N[C@H]2CC[C@H](O)CC2)c2nc3ccccc3[nH]2)c(F)c1 (relative stereo) [Example 210]
Reply: 8.72

* * *

Each record here notes measured EC50.
system tested: recombinant human ALX receptor (Homo sapiens)
assay procedure: Intracellular calcium measurements (FLIPR), ALX receptor agonistic activity
condition: HEK293-hALXR-Gα16 cells, Fluo-4 calcium signal, normalized to WKYMVm 10 nM
In your response, the unit should come after the numeric value.

Below: 5 compounds and their reported EC50.
compound	assay result
COc1ccc(CC(NC(=O)NCCc2ccccc2OC)c2nc3ccccc3[nH]2)cc1 (centres unmarked) [Example 40]	62 nM
COc1ccc(C[C@@H](NC(=O)NCc2ccccc2Cl)c2nc3ccccc3[nH]2)cc1 [Example 207]	835 nM
COc1ccc(CC(NC(=O)N[C@@H](C)c2cccc(Cl)c2)c2nc3ccccc3[nH]2)cc1 (some centres unmarked) [Example 360]	561 nM
COc1ccc(CCNC(=O)NC(Cc2ccc(OC)cc2)c2nc3ccccc3[nH]2)cc1 (centres unmarked) [Example 53]	539 nM
COc1ccc(C[C@@H](NC(=O)NCCc2cccc(OC)c2)c2nc3ccccc3[nH]2)cc1 [Example 6]	378 nM

Task item: Answer with the recorded EC50 for the compound listed here: COc1ccc(CC(NC(=O)Nc2ccnn2-c2ccc(OC(F)(F)F)cc2)c2nc3ccccc3[nH]2)cc1 (centres unmarked) [Example 413]
Reply: 153 nM

Task item: Answer with the recorded EC50 for the compound listed here: C[C@]1(O)CC[C@H](NC(=O)NC(Cc2ccc(Br)c(F)c2)c2nc3ccccc3[nH]2)CC1 (mixture of isomers) [Example 231]
Reply: 5.2 nM

Task item: Answer with the recorded EC50 for the compound listed here: COc1cc(F)c(CC(NC(=O)NC23CCC(O)(CC2)CC3)c2nc3ccccc3[nH]2)cc1F (centres unmarked) [Example 249]
Reply: 4.2 nM

* * *

system tested: recombinant human ALX receptor (Homo sapiens)
assay procedure: Intracellular calcium measurements (FLIPR), ALX receptor agonistic activity
condition: HEK293-hALXR-Gα16 cells, Fluo-4 calcium signal, normalized to WKYMVm 10 nM
readout name: EC50
In your response, the unit should come after the numeric value.

molecule	EC50
COc1ccc(CC(NC(=O)NCc2ccccc2Cl)c2nc3ccccc3[nH]2)cc1 (centres unmarked) [Example 45]	0.76 µM
COc1ccc(C[C@@H](NC(=O)N[C@H](C)C2CCCCC2)c2nc3ccccc3[nH]2)cc1 [Example 383]	1.78 µM
COc1ccc(C[C@@H](NC(=O)NC2CCCC(C(=O)O)C2)c2nc3ccccc3[nH]2)cc1 (some centres unmarked) [Example 229]	0.094 µM
COc1ccc(C[C@@H](NC(=O)N[C@@H]2CCNC[C@@H]2F)c2nc3ccccc3[nH]2)cc1 (relative stereo) [Example 164]	0.025 µM

Task item: Jot down EC50 (recombinant human ALX receptor (Homo sapiens)) of COc1ccc(C[C@@H](NC(=O)N2CCC3CN(C(=O)OC(C)(C)C)CC32)c2nc3ccccc3[nH]2)cc1 (some centres unmarked) [Example 120] .
Reply: 0.057 µM

Task item: Jot down EC50 (recombinant human ALX receptor (Homo sapiens)) of COc1ccc(C[C@@H](NC(=O)NCCCCO)c2nc3ccccc3[nH]2)cc1 [Example 96] .
Reply: 0.152 µM

Task item: Jot down EC50 (recombinant human ALX receptor (Homo sapiens)) of O=C(NC(Cc1ccc(C(F)(F)F)cc1F)c1nc2ccccc2[nH]1)NC12CCC(O)(CC1)CC2 (single isomer, unassigned; ent-1) [Example 362] .
Reply: 0.027 µM

Task item: Jot down EC50 (recombinant human ALX receptor (Homo sapiens)) of COc1ccc(C[C@@H](NC(=O)NCCc2ccncc2)c2nc3ccccc3[nH]2)cc1 [Example 295] .
Reply: 0.645 µM

Task item: Jot down EC50 (recombinant human ALX receptor (Homo sapiens)) of COc1ccc(C[C@@H](NC(=O)N[C@H]2CC[C@H](O)CC2)c2nc3cc(OC)ccc3[nH]2)cc1 [Example 84] .
Reply: 0.011 µM

Task item: Jot down EC50 (recombinant human ALX receptor (Homo sapiens)) of COc1ccc(CC(NC(=O)NC2CCC(C)(O)CC2)c2nc3ccccc3[nH]2)cc1F (single isomer, unassigned; ent-1) [Example 308] .
Reply: 0.0027 µM

Task item: Jot down EC50 (recombinant human ALX receptor (Homo sapiens)) of COC(=O)N1CCC(NC(=O)N[C@H](Cc2ccc(OC)cc2)c2nc3ccccc3[nH]2)C1 (some centres unmarked) [Example 158] .
Reply: 0.158 µM

Task item: Jot down EC50 (recombinant human ALX receptor (Homo sapiens)) of COc1ccc(CC(NC(=O)NC23CCC(O)(CC2)CC3)c2nc3ccc(F)cc3[nH]2)c(F)c1 (single isomer, unassigned; ent-2) [Example 398] .
Reply: 2.62 µM

Task item: Jot down EC50 (recombinant human ALX receptor (Homo sapiens)) of COc1ccc(C[C@@H](NC(=O)NCCN2CCN(C(=O)OC(C)(C)C)CC2)c2nc3ccccc3[nH]2)cc1 [Example 144] .
Reply: 0.947 µM

Task item: Jot down EC50 (recombinant human ALX receptor (Homo sapiens)) of COc1ccc(C[C@@H](NC(=O)N[C@H](CO)Cc2ccccc2)c2nc3ccccc3[nH]2)cc1 [Example 212] .
Reply: 0.0028 µM

Task item: Jot down EC50 (recombinant human ALX receptor (Homo sapiens)) of COc1ccc(C[C@@H](NC(=O)N[C@H]2CCC[C@@H]2O)c2nc3ccccc3[nH]2)cc1 [Example 115] .
Reply: 0.143 µM

Task item: Jot down EC50 (recombinant human ALX receptor (Homo sapiens)) of COc1ccc(C[C@@H](NC(=O)N[C@@H](C)c2ccc(OC)cc2)c2nc3ccccc3[nH]2)cc1 [Example 330] .
Reply: 0.205 µM

Task item: Jot down EC50 (recombinant human ALX receptor (Homo sapiens)) of O=C(N[C@H](Cc1ccc(Br)cc1)c1nc2ccccc2[nH]1)N[C@H]1CC[C@H](O)CC1 [Example 35] .
Reply: 0.0054 µM

Task item: Jot down EC50 (recombinant human ALX receptor (Homo sapiens)) of COc1ccc(C[C@@H](NC(=O)NCc2ccn(CC(F)(F)F)n2)c2nc3ccccc3[nH]2)cc1 [Example 293] .
Reply: 0.168 µM

Task item: Jot down EC50 (recombinant human ALX receptor (Homo sapiens)) of COc1ccc(CC(NC(=O)NC2CCOCC2)c2nc3ccccc3[nH]2)cc1 (centres unmarked) [Example 10] .
Reply: 0.113 µM

Task item: Jot down EC50 (recombinant human ALX receptor (Homo sapiens)) of COc1ccc(CC(NC(=O)N[C@H]2CC[C@H](O)CC2)c2nc3ccccc3[nH]2)cc1F (single isomer, unassigned; ent-1) [Example 309] .
Reply: 0.0037 µM

Task item: Jot down EC50 (recombinant human ALX receptor (Homo sapiens)) of COc1ccc(CC(NC(=O)NCc2cccc(OC)c2)c2nc3ccccc3[nH]2)cc1 (centres unmarked) [Example 39] .
Reply: 0.516 µM

Task item: Jot down EC50 (recombinant human ALX receptor (Homo sapiens)) of COc1ccc(C[C@@H](NC(=O)N[C@H]2CC[C@H](O)c3ccccc32)c2nc3ccccc3[nH]2)cc1 (relative stereo) [Example 134] .
Reply: 0.107 µM

Task item: Jot down EC50 (recombinant human ALX receptor (Homo sapiens)) of O=C(N[C@H](Cc1ccc(C(F)(F)F)cc1)c1nc2ccccc2[nH]1)NC12CCC(O)(CC1)CC2 [Example 255] .
Reply: 0.027 µM
